assay-details: AUC in Sprague-Dawley rat at 1 mg/kg, iv or 10 mg/kg, po
Format: ADME, organism-based
experimental-context: in vivo
Binary classification by AUC, with 1000 nM·h as an inclusive lower bound for 1.0; all other cases are 0.0.

compound: CN(c1ccc(-c2ccc(-c3cn[nH]c3)cc2O)nn1)C1CC(C)(C)NC(C)(C)C1
class-name: 1.0
--
compound: CN(c1ccc(-c2ccc(-n3ccc(N)n3)cc2O)nn1)C1CC(C)(C)NC(C)(C)C1
class-name: 0.0
--
compound: CN(c1ccc(-c2cc3cnccc3cc2O)nn1)C1CC(C)(C)NC(C)(C)C1
class-name: 1.0
--
compound: CN(c1ccc(-c2cc3cccnc3cc2O)nn1)C1CC(C)(C)NC(C)(C)C1
class-name: 1.0
--
compound: CC1(C)CC(Oc2ccc(-c3ccc(-c4cn[nH]c4)cc3O)nn2)CC(C)(C)N1 [BRANAPLAM]
class-name: 1.0
